- tgt: α-7 nicotinic acetylcholine receptor channel expressed in HEK 293 cells (Rattus norvegicus, UniProt Q05941)
- Construct: expressed in transfected cells
- Sequence (Q05941 23-502): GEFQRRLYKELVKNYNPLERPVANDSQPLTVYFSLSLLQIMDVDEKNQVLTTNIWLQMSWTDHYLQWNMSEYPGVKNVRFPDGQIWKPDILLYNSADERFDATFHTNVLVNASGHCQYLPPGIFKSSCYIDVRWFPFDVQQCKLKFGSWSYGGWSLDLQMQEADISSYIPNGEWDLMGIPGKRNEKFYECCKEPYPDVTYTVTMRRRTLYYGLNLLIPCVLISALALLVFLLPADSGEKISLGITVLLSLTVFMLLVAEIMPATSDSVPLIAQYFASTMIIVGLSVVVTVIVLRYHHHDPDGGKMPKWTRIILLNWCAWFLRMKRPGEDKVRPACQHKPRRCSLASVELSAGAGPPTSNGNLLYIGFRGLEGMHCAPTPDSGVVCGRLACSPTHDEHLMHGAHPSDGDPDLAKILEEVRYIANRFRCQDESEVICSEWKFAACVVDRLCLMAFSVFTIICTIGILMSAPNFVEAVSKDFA
- assayMethodText: Ca2+-sensitive fluorescence-based FLIPR assay, α7 nicotinic ACh receptor channel function (agonist)
- Assay type: cell-based
- testContext: FLIPR α7 activity rating (EC50, nM), Table 1; HEK 293 cells, agonist Ca2+ flux
readoutLabel: EC50

Look over these answered cases.
compound	EC50
C1CCc2sc(NC3=NCC4(CN5CCC4CC5)O3)nc2C1 (racemic) [Example 14]	100 to 1000 nM
Cc1ccc2cnc(NC3=NC[C@@]4(CN5CCC4CC5)O3)cc2c1 [Example 291]	< 100 nM
Clc1cccc(-c2cc(NC3=NC[C@@]4(CN5CCC4CC5)O3)ncn2)c1 [Example 257]	< 100 nM

Okay, now this compound:
EC50 measured on c1nc(N2CCCC2)cnc1NC1=NC[C@@]2(CN3CCC2CC3)O1 [Example 34] = 1000 to 100000 nM
